Origin of the recorded values: paper PMC12320299

System: HCT116 TP53 wild-type (TP53WT)
Test: MTT viability assay, HCT116 TP53 wild-type, 96 h
Format: cell-based, human
Protocol: removed and 100 µL DMSO was added to dissolve the formazan crystals. Photometric quantification was performed at 570 nm with a Multiskan Go 1510 photometer (Thermo Fisher […] The absorbances were blank corrected and converted to relative proliferation. The IC50 values (concentration of 50% growth inhibition) were obtained using a sigmoidal fit of the experimental data and calculated as the mean ± standard deviation of at least three independent experiments, each in at least triplicates. […]

[
  {
    "compound": "CCC1=C2[O][Ru][O]C2(n2cccn2)c2ccccc2C1=O.Cc1ccc(C(C)C)cc1 (stereo not shown)",
    "IC50": "130 nM"
  }
]
